All figures here come from the supplement of paper PMC10567573.

B1: PTPN9 (parent)
chain: NKWTVQYNVSPLSWNVAVKFLMAR

# Variants of: B1
# PROCEDURE TEXT: protein stability index of a GFP-peptide fusion (GPS, HEK-293T) (PSI 1-6); higher = more stable;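 note: lentivirally expressed fusions sorted by FACS into six bins by GFP to DsRed ratio, PSI derived from sequencing read proportions per bin multiplied by bin number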
# CONDITIONS USED: c terminus: a fixed tail appended
EXPERIMENTAL READOUT: protein stability index
Please respond with just the number, no unit label.

(Q) So what does the record say about protein stability index for A17Q ?
(A) 3.33

(Q) So what does the record say about protein stability index for V18G ?
(A) 1.8

(Q) So what does the record say about protein stability index for Q6Y ?
(A) 2.07

(Q) So what does the record say about protein stability index for V9I ?
(A) 4.2

(Q) So what does the record say about protein stability index for P11A ?
(A) 2.01

(Q) So what does the record say about protein stability index for W3R ?
(A) 1.97

(Q) So what does the record say about protein stability index for V18H ?
(A) 1.78

(Q) So what does the record say about protein stability index for P11N ?
(A) 2.66
